Source listed as ChEMBL document CHEMBL1770132.

- Test Protocol: Half life in plasma of C57BL/6 mouse
- Format: ADME, organism-based
Everything with half-life lower than 5 h is Condition not met; everything else, including exactly 5 h, is Condition met.

For orientation, consider the following solved cases.
| Smiles Entry | Discrete Label |
| --- | --- |
| C[C@@H]1CCC(C(=O)O)=C(NC(=O)[C@@H](N)Cc2nc(-c3ccc(F)cn3)no2)C1 | Condition met |
| C[C@@H]1CCC(C(=O)O)=C(NC(=O)CCc2nc(-c3ccc(F)cn3)no2)C1 | Condition not met |
| C[C@@H]1CCC(C(=O)O)=C(NC(=O)[C@@H](N)Cc2nc(-c3ccc(O)cn3)no2)C1 | Condition not met |
| O=C(CCc1nc(-c2ccc(O)cn2)no1)NC1=C(C(=O)O)CCCC1 | Condition not met |

Next, consider the following compound.
input: Can `N[C@@H](Cc1nc(-c2ccc(O)cn2)no1)C(=O)NC1=C(C(=O)O)CCCC1` be said to have half-life at or above 5 h?
output: Condition not met
